This collection of values is drawn from ChEMBL document CHEMBL1122021.

- assayedSystem: Angiotensin-converting enzyme (Oryctolagus cuniculus)
- Sequence (P12822 whole entry): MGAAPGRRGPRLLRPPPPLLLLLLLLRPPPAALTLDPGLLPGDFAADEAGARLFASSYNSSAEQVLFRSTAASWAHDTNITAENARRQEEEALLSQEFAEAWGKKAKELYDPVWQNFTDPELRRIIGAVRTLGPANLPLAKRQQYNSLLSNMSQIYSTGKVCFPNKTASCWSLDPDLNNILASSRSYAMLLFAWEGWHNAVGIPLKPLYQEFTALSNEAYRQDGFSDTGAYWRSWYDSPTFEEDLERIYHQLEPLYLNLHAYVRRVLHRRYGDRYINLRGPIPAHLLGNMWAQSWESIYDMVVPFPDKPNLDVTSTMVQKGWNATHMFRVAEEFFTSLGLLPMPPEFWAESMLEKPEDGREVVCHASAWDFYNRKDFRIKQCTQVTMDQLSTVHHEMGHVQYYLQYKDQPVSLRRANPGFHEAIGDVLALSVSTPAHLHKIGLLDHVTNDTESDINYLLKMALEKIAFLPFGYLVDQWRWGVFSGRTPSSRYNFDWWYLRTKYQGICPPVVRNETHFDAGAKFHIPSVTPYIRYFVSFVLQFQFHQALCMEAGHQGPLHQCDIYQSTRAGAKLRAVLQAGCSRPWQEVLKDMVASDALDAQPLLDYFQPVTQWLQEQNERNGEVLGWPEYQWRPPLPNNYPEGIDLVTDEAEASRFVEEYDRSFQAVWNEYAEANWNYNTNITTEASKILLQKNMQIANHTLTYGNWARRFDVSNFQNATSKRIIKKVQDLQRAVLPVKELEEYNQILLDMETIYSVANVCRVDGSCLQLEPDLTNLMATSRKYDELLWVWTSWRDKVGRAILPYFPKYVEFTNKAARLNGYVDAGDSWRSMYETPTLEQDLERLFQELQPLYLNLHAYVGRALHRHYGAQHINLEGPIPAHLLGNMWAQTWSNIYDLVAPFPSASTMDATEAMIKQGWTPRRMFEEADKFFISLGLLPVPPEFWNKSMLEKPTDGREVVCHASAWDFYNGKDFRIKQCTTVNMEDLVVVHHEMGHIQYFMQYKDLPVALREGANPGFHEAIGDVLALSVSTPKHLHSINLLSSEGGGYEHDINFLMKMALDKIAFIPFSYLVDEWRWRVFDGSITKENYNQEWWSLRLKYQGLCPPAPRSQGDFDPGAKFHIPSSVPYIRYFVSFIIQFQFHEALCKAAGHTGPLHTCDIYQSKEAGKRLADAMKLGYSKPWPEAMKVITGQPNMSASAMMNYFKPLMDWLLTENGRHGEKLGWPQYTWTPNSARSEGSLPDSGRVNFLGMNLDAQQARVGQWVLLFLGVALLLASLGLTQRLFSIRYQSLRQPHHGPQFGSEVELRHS
- assayRemarks: In vitro inhibitory activity against Angiotensin I converting enzyme in rabbit lung, using hippuryl-histidyl-leucine as substrate
- conditionContext: read-out: I50
observationType: IC50 (µM)
Answers are plain numbers, in µM.

{"compound": "C[C@H](CS)C(=O)N1CCCC[C@H]1C(=O)O", "assayedSystem": "Angiotensin-converting enzyme (Oryctolagus cuniculus)", "IC50 [µM]": 0.13}
{"compound": "O=C(O)CCC(O)CCS (centres undefined)", "assayedSystem": "Angiotensin-converting enzyme (Oryctolagus cuniculus)", "IC50 [µM]": 1200}
{"compound": "O=C(O)CCCCCS", "assayedSystem": "Angiotensin-converting enzyme (Oryctolagus cuniculus)", "IC50 [µM]": 1100}
{"compound": "O=C(O)[C@@H]1CCC(=O)N1CCCS", "assayedSystem": "Angiotensin-converting enzyme (Oryctolagus cuniculus)", "IC50 [µM]": 640}
{"compound": "O=C(CCS)[C@H]1CCCC[C@H]1C(=O)O", "assayedSystem": "Angiotensin-converting enzyme (Oryctolagus cuniculus)", "IC50 [µM]": 1.4}

For each listed entry, give its IC50.
1. O=C(O)[C@@H]1CCC[C@H]1C(=O)CCS
2. O=C(CCS)[C@H]1CC[C@H]1C(=O)O
3. O=C(O)CCC(=O)CCS
4. O=C(O)[C@@H]1CC[C@H]1C(=O)CCS
5. O=C(O)[C@@H]1CCCCN1C(=O)CCS
6. O=C(CCS)N[C@@H](Cc1ccccc1)C(=O)O

Key:
1: 2.4; 2: 34; 3: 11; 4: 37; 5: 0.46; 6: 0.85
